# assay name: Tissue distribution
# run conditions: both, SD, rat, thymus, iv, 6 μmol/kg
endpoint name: concentration at 2 h

# sample smiles, endpoint name, result
records = [
    ("CO[C@H]1C(=O)[C@]2(C)[C@@H](OC)C[C@H]3OC[C@@]3(OC(C)=O)[C@H]2[C@H](OC(=O)c2ccccc2)[C@]2(O)C[C@H](OC(=O)[C@H](O)[C@@H](NC(=O)OC(C)(C)C)c3ccccc3)C(C)=C1C2(C)C", "concentration at 2 h", "129 ng/g"),
]

====

# assay name: Plasma pharmacokinetics (non-compartmental)
# run conditions: both, SD, rat, plasma, iv, 6 umol/kg

# sample smiles, scale unit, AUC(0-t)
measured = [
    ("CO[C@H]1C(=O)[C@]2(C)[C@@H](OC)C[C@H]3OC[C@@]3(OC(C)=O)[C@H]2[C@H](OC(=O)c2ccccc2)[C@]2(O)C[C@H](OC(=O)[C@H](O)[C@@H](NC(=O)OC(C)(C)C)c3ccccc3)C(C)=C1C2(C)C", "ng·h/mL", 1680),
]

Every entry's value here was drawn from paper PMC12689286.
